The entries below come with measured viability values attached.
Assay: reversal of MRP1-mediated doxorubicin resistance, pilot screen, H69AR cells, doxorubicin co-treatment (AID 601)
Settings: H69AR cells, CellTiter-Glo, 72 h; compound alone cytotoxicity; at 10 µM
Use % as the unit, but write only the number.

Ask: Any idea what viability was measured for COC(=O)c1nn(-c2ccc(-c3ccccc3)cc2)cc1O ?
Result: 89.2

Ask: FC(F)(F)c1nnc2sc(-c3cccs3)nn12 ?
Result: 113

Ask: COc1ccc(CCNC(=O)C2CCN(S(=O)(=O)c3cc(OC)ccc3OC)CC2)cc1 ?
Result: 103

Ask: O=C(Nc1ccc(N2CCOCC2)cc1)c1cccc(S(=O)(=O)N2CCCC2)c1 ?
Result: 98.4

Ask: CCN1C(=O)NC(c2cc(Br)ccc2OC)C(C(=O)OC)=C1C (centres undefined) ?
Result: 95.3

Ask: O=C(OCCCCN1C(=O)c2ccccc2C1=O)c1n[nH]c2ccccc12 ?
Result: 101

Ask: O=C(NCC1COCCO1)C1CCN(S(=O)(=O)c2ccccc2)CC1 (centres undefined) ?
Result: 109

Ask: CC(C(=O)N1CCCCC1)n1ncn2cccc2c1=O (centres undefined) ?
Result: 102

Ask: c1ccc(CCc2nc(-c3cccnc3)no2)cc1 ?
Result: 92.9

---

Test: growth inhibitors of H69AR lung tumor, primary screen, human, duplicate replicates (AID 580);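 further: 100% = mean luminescence of untreated wells and 0% = no signal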
Settings: H69AR lung tumor cells viability, ATP luminescence, 72 h; at 10 µM; stronger effect = lower value
MEASUREMENT KIND: viability (%)
Use % as the unit, but write only the number.

Here are 2 compounds together with their reported answers.
>>> print(df.to_string())
                             smiles_record  measurement_kind  readout_value
0  O=C(CSc1ncc(-c2ccc(F)cc2)[nH]1)N1CCCCC1         viability           91.3
1     CCCc1cn(S(=O)(=O)c2ccc(OC)cc2OC)nc1N         viability           92.4

Ask: Any idea what viability was measured for C=CCNC(=O)c1cccc(Br)c1 ?
Result: 92

---

The entries below come with measured viability values attached.
Test: reducers of endogenous Her2 protein level, primary screen, SKBR3 breast tumor cells, AlphaScreen, ATP viability (AID 461);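 further: percent of carrier control wells set as 100% viability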
Conditions: 18-24 h, measured here: SKBR3 viability, ATP luminescence, at 10 µM
# number then unit; no other words

Here are 3 compounds together with their reported answers.
                                   compound  readout_value
0   Cc1cc(C(=O)N2CCN(C/C=C/c3ccccc3)CC2)no1          92.5%
1  N#CC1=C(N)S[C@H](C(=O)C23CC4CC(CC(C4)C2)C3)[C@H]1c1ccncc1            81%
2  CCOC(=O)c1c(NC(=O)CSc2nc3c(c(=O)n(C)c(=O)n3C)n2C(C)C)sc(C)c1C           106%

Ask: Any idea what viability was measured for CC(NC(=O)c1ccc(F)cc1)C(c1cccs1)N1CCN(C)CC1 (centres undefined) ?
Result: 90.5%

Ask: CCc1nc2scc(-c3ccccc3)c2c(=O)n1N ?
Result: 136%

Ask: Cc1ccc(Cn2nnc3c(=O)n(CC(=O)NCC4CCCO4)cnc32)cc1 (centres undefined) ?
Result: 97%

Ask: COC(=O)c1cc2ccsc2n1CC(=O)Nc1cc(C)cc(C)c1 ?
Result: 96.5%

Ask: O=C(C1CCC1)N1CCc2cc(S(=O)(=O)N3CCc4ccccc4C3)ccc21 ?
Result: 88%

---

Experiment: reversal of MRP1-mediated doxorubicin resistance, pilot screen, H69AR cells, doxorubicin co-treatment (AID 601)
Settings: H69AR cells + 2 uM doxorubicin, CellTiter-Glo, 72 h; measured here: viability with 2 uM doxorubicin; at 10 µM; stronger effect = lower value
The entries below come with measured viability values attached.
Use % as the unit, but write only the number.

Here are 6 compounds together with their reported answers.
                                   compound  readout_value
0  CCOc1cc(NC(=O)c2ccco2)c(OCC)cc1NC(=O)Cc1cccc(OC)c1           86.7
1  O=C(NCC(c1cccnc1)N1CCN(c2ccc(F)cc2)CC1)c1ccc(F)cc1 (centres undefined)             91
2  Cc1nn(-c2ccccc2)c(C)c1C(=O)OCC(=O)c1c(N)n(CC(C)C)c(=O)n(C)c1=O            102
3       COc1ccc(CNc2nc3nc(C)cc(C)n3n2)cc1OC            103
4     CCn1c(=O)cc(SCC(=O)N2CCOCC2)c2ccccc21             68
5  O=C1CSC(c2cccc(F)c2)N1c1ccccc1F (centres undefined)           88.2

// next entry
Ask: Any idea what viability was measured for Cc1cc(-c2ccccc2)c2c3c(cn2n1)c(=O)n(C)c(=O)n3C ?
Result: 76.1

---

Experiment: reversal of MRP1-mediated doxorubicin resistance, pilot screen, H69AR cells, doxorubicin co-treatment (AID 601)
Settings: H69AR cells, CellTiter-Glo, 72 h; compound alone cytotoxicity; at 10 µM
The entries below come with measured viability values attached.
Use % as the unit, but write only the number.

Here are 4 molecules together with their reported answers.
>>> df
                                   molecule  measurement_kind  unit_abbreviation  readout_value
0  COc1cc(C2C(C#N)=C(N)OC3=C2C(=O)CC(C)(C)C3)ccc1OC(=O)N1CCOCC1 (stereo not given)         viability                  %           98.8
1   Cc1cccc2cc(COC(=O)C(C)(C)C)c(=O)[nH]c12         viability                  %           97.6
2  CCOc1ccc2nc(NC(=O)CSc3nnnn3C3CCCCC3)sc2c1         viability                  %           63.5
3  CCOc1ccc2[nH]c(=O)c(CN(Cc3nnnn3CCc3ccccc3)CC3CCCO3)cc2c1 (stereo not given)         viability                  %           78.7

// next entry
Ask: Any idea what viability was measured for CC(=O)Nc1c2c(nn1-c1ccc(C)cc1C)CSC2 ?
Result: 90.7

---

Assay: 384-well plate pilot, post-Golgi transport modulator project, inhibition of yeast transport mutant growth (AID 636)
Settings: absorbance 615 nm, about 18 h, stronger effect = higher value
Active and inactive are the calls of the source. Cut-off read from the data, not from the text of the source: active = inhibition above about 31%; inactive = the rest.
MEASUREMENT KIND: inhibition

In [3]: df
Out[3]:
                                   compound      readout_value
0  O=C(C1CCC1)N1CCc2cc(S(=O)(=O)Nc3ccc4c(c3)OCO4)ccc21  -6.27% (inactive)
1  CNS(=O)(=O)c1cccc(C(=O)OCC(=O)c2cc(C)n(-c3ccc4c(c3)OCO4)c2C)c1  -4.42% (inactive)
2  NC(=O)CSc1nnc(-c2cc3ccccc3o2)n1Cc1ccccc1  -6.05% (inactive)
3  COC(=O)C1=C(C)NC(=O)C1(Nc1ccc(Cl)cn1)C(F)(F)F (stereo unspecified)  -3.59% (inactive)

Ask: Any idea what inhibition was measured for O=S(=O)(c1ccc(F)c(Cl)c1)N1CCCC1 ?
Result: -5.68% (inactive)

Ask: CN(C(=O)c1ccccn1)c1nnc(-c2ccncc2)s1 ?
Result: -3.65% (inactive)

Ask: CCOC(=O)Nc1c(C(=O)OC)[nH]c2cccc(OC)c12 ?
Result: 3.03% (inactive)

Ask: COc1ccccc1NC(=O)c1ccc(NC(=O)CSc2nnnn2C)cc1 ?
Result: -6% (inactive)

Ask: CCn1c(SCC(=O)N2CCCc3ccccc32)nnc1-c1cccs1 ?
Result: -5.87% (inactive)

Ask: Cc1ccc(Nc2nc(CSc3nnnn3C)cs2)cc1 ?
Result: -7.24% (inactive)

Ask: Cn1c2c(c(=O)n(C)c1=O)C(CC(=O)Nc1ccccc1)C(=O)N2 (stereo unspecified) ?
Result: -2.97% (inactive)

---

Experiment: SK-BR-3 cell growth inhibitors, pilot screen, 24 h, human (AID 572);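 further: compound exposure lasted between 18 and 24 h rather than exactly 24 h; 100% = carrier-treated control wells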
Details: SK-BR-3 viability, CellTiter-Glo luminescence, at 10 µM, stronger effect = lower value
The entries below come with measured viability values attached.
Use % as the unit, but write only the number.

Here are 2 compounds together with their reported answers.
                                   compound  readout_value
0  CCCCn1nc(C(=O)N2CCc3ccccc32)c2ccccc2c1=O           81.5
1  CC1(C)COCN1S(=O)(=O)c1ccc(C(=O)Nc2nnc(-c3ccc(Cl)s3)o2)cc1           70.5

Ask: Any idea what viability was measured for c1ccc(Cc2ccc(OCCn3cncn3)cc2)cc1 ?
Result: 84

Ask: CCc1ccc(C2CC(c3ccccc3)n3ncnc3N2)cc1 (stereo not given) ?
Result: 80

Ask: CCOC(=O)Cn1c(=N)n(CCOc2cccc(C)c2)c2ccccc21 ?
Result: 121

Ask: CCOc1ccc(C(C)=O)cc1COc1ccc(-n2cnnn2)cc1 ?
Result: 99

Ask: O=C(CCn1c(=S)[nH]c2cc3c(cc2c1=O)OCO3)N1CCN(C2CCCCC2)CC1 ?
Result: 90.5

Ask: CS(=O)(=O)c1ccc2nc(NC(=O)CCC(=O)c3cccs3)sc2c1 ?
Result: 91

Ask: COc1ccc(C(=O)NCCCCCC(=O)O)cc1OC ?
Result: 125

Ask: CCOC(=O)c1ccc(N2C(=O)C3CC=CCC3C2=O)cc1 (stereo not given) ?
Result: 112

Ask: Cc1ccc(Oc2ccc(-c3nc(N)nc(N)n3)cc2)cc1 ?
Result: 112

Ask: COc1ccc(-n2c(Cc3cccn3C)nnc2SCC(=O)Nc2cccc(C)c2C)cc1 ?
Result: 88.5
